test system: MDA-MB-231 triple-negative breast cancer cells; experiment: MTS cell viability, combined treatments of PaSK with chemotherapeutic agents; conditions: chemotherapeutic agent alone, 72 h, 3 replicates
readout: EC50 (µM)
Write the number in µM without appending the unit.

INSERT INTO measurements (compound, assay_target, unit_of_measurement, test_value) VALUES
  ('N.N.[Cl][Pt][Cl] [cisplatin]', 'MDA-MB-231 triple-negative breast cancer cells', 'µM', 168);

Q: Look at this compound and give its reported EC50. O=c1[nH]cc(F)c(=O)[nH]1 [5-fluorouracyl]
Result: 25.3
